test system: Phospholipidosis; experiment: Literature-mined public compounds from Lowe et al phospholipidosis modelling dataset
quantity: Phospholipidosis

Query :: Request: Phospholipidosis, test system Phospholipidosis, entry CN[C@H]1CC[C@@H](c2ccc(Cl)c(Cl)c2)c2ccccc21 [SERTRALINE]
Result :: Positive

Query :: Notebook: pull reported Phospholipidosis for Phospholipidosis, entry CC12CC3CC(C)(C1)CC(N)(C3)C2 [MEMANTINE]
Result :: Positive

###

tested on: Phospholipidosis; experiment: Literature-mined public compounds from Lowe et al phospholipidosis modelling dataset
quantity: Phospholipidosis

Some compounds with known Phospholipidosis results, for comparison:
Query :: GET /values?readout=Phospholipidosis&item= CC1(C)N=C(N)N=C(N)N1OCc1ccc(Cl)c(Cl)c1
Result :: Positive

Query :: What measured Phospholipidosis goes with CCN(CC)CCOC(=O)c1ccc(N)cc1 ?
Result :: Negative

Query :: Item under review: O=C(CCCN1CCC(O)(c2ccc(Cl)cc2)CC1)c1ccc(F)cc1 . Reported Phospholipidosis?
Result :: Positive

Query :: Look up Phospholipidosis for this compound: CC(=N)S [THIOACETAMIDE]
Result :: Negative

New cases:
Query :: Which Phospholipidosis is listed for CN1CCN(CCCCN2C(=O)CN(/N=C/c3ccc(-c4ccc(Cl)cc4)o3)C2=O)CC1.Cl.Cl [AZIMILIDE DIHYDROCHLORIDE] ?
Result :: Positive

Query :: Tell me the measured Phospholipidosis of CC(CCCN(CCCl)CCCl)Nc1ccnc2cc(Cl)ccc12 (stereo unspecified) , please.
Result :: Positive

Each recorded value in this set is attributed to ChEMBL document CHEMBL1697681.
